ASSAY_COMMENT: DUSP6 inhibitors restoring Erk phosphorylation by chemical complementation, primary imaging in DUSP6-transfected HeLa (AID 609)
CONDITION_NOTES: HeLa MKP-3 transfected, phospho-Erk imaging KS statistic; measured here: nuclear pErk red intensity z-score; at 10 µM; stronger effect = higher value; cells stimulated with TPA for 15 min
Each item that follows carries a reported z-score.
The answer should be written as a number, with no unit following it.

Example cases with answers are listed next.
O=C(O)C1CC(=O)n2c(nc3ccccc32)S1 (stereo not given) ... -0.562
CC(C)(C)C1=Nn2c(nnc2C2CCCCC2)SC1 ... 0.611
Cc1cc(C)n(-c2c(F)c(F)c(CN3CCCCC3)c(F)c2F)n1 ... -1.05

Lab note: measured z-score of CCCC(CCC(=O)Nc1ccc(C(=O)OC)cc1)C(=O)O (stereo not given) was 0.0137

Lab note: measured z-score of `CCc1nc(N2CCN(C(=O)c3ccccc3)CC2)c(C#N)c2c1COC(C)(C)C2` was 0.894

Lab note: measured z-score of `COc1cc(/C=N/n2nnnc2N)ccc1O` was -0.571

Lab note: measured z-score of `CC(C)c1ccc(O)c(N)c1` was 0.0534

Lab note: measured z-score of `N#Cc1c(N2CCCCC2)nc(N2CCCCC2)c2c1CCN(Cc1ccccc1)C2` was 0.622
